Experiment Description: CCTE_Shafer_MEA_dev_network_spike_duration_std: CCTE's Neural Network Formation Assay for Standard Deviation of Network Spike Duration, Shafer Lab (AID 2284052);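 further: area under curve of spike duration SD across recording days 5 to 12; hits are decreases in network spike duration SD versus DMSO vehicle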
The source made the active and inactive calls. How the source made its calls: active means hit-call score of the fitted dose curve at least 0.9, where 1 is the maximum; inactive means score below 0.9.
Choose the fitting class; nothing outside active, inactive is accepted.

• Brc1ccc(Oc2ccc(Br)cc2Br)c(Br)c1 = inactive
• CC(C)CCCCCCCOP(=O)(Oc1ccccc1)Oc1ccccc1 = inactive
• CCOP(=O)(OCC)SCSCC = inactive
• CP(=O)(O)CCC(N)C(=O)O (stereo not given) = inactive
• O.O.O.O.O.[Cd+2].[Cd+2].[Cl-].[Cl-].[Cl-].[Cl-] = active
• CC1(C)[C@H](C=C(Cl)Cl)[C@@H]1C(=O)O[C@@H](C#N)c1cccc(Oc2ccccc2)c1 = active
• CN1C(=O)CN=C(c2ccccc2)c2cc(Cl)ccc21 = inactive
• CCOP(=O)(O)OCC (tested in a mixture with another compound) = inactive
• CC1CCCC1.[C-]#[O+].[C-]#[O+].[C-]#[O+].[Mn] = inactive
• CP(=O)(O)CC[C@H](N)C(=O)O = inactive

Answer briefly: the call reported for "CC1(C)[C@H](C=C(Cl)Cl)[C@H]1C(=O)OCc1c(F)c(F)cc(F)c1F" in this assay.
inactive

Answer briefly: the call reported for "C[C@H](N)Cc1ccccc1" in this assay.
inactive

Answer briefly: the call reported for "C=CCN1CC[C@]23c4c5ccc(O)c4O[C@H]2C(=O)CC[C@@]3(O)[C@H]1C5" in this assay.
inactive

Answer briefly: the call reported for "C#CCN(C)[C@H](C)Cc1ccccc1" in this assay.
inactive

Answer briefly: the call reported for "COC(=O)[C@H]1[C@@H](OC(=O)c2ccccc2)C[C@@H]2CC[C@H]1N2C" in this assay.
inactive

Answer briefly: the call reported for "CC1(C)[C@H](C(=O)O[C@H](C#N)c2cccc(Oc3ccccc3)c2)[C@@H]1C=C(Br)Br" in this assay.
active

Answer briefly: the call reported for Cc1ccc(OP(=O)(Oc2ccc(C)cc2)Oc2ccc(C)cc2)cc1 (tested in a mixture with another compound) in this assay.
inactive

Answer briefly: the call reported for CCOP(=O)(Oc1cnc(C(C)(C)C)nc1)OC(C)C (stereo not given) in this assay.
inactive

Answer briefly: the call reported for CCOP(=O)(OCC)OC(Cl)C(Cl)(Cl)Cl (stereo not given) in this assay.
active

Answer briefly: the call reported for "CCC[CH2][Sn]([CH2]CCC)([CH2]CCC)[O][Sn]([CH2]CCC)([CH2]CCC)[CH2]CCC" in this assay.
active

Answer briefly: the call reported for "CC1(C)[C@@H](C=C(Cl)Cl)[C@@H]1C(=O)O[C@@H](C#N)c1ccc(F)c(Oc2ccccc2)c1" in this assay.
inactive

Answer briefly: the call reported for CNC(=N[N+](=O)[O-])NCC1CCOC1 (stereo not given) in this assay.
inactive

Answer briefly: the call reported for CC1(C)C(C=C(Cl)Cl)C1C(=O)O[C@H](C#N)c1cccc(Oc2ccccc2)c1 (stereo not given in full) in this assay.
active

Answer briefly: the call reported for "CCOP(=O)(OCC)SCSC(C)(C)C" in this assay.
inactive

Answer briefly: the call reported for "CC(=O)[O-].[Tl+]" in this assay.
active

Answer briefly: the call reported for "[CH3][Sn]([CH3])[CH3]" in this assay.
active

Answer briefly: the call reported for "[Cd+2].[Cl-].[Cl-]" in this assay.
active

Answer briefly: the call reported for CCCCC(CC)COC(=O)c1cc(Br)c(Br)c(Br)c1Br (stereo not given) in this assay.
inactive

Answer briefly: the call reported for "O=[As]O" in this assay.
active

Answer briefly: the call reported for "c1ccc2cc3c(cc2c1)-c1cccc2cccc-3c12" in this assay.
inactive

* * *

Experimental Target: Cellular tumor antigen p53 (Homo sapiens)
Experiment Description: TOX21_p53_BLA_p5_ratio: Tox21 HCT-116 p53 Agonism Beta-lactamase Assay, Ratio, Phase 5 (AID 2283599)
Inconclusive results are not listed. Calls of active or inactive are those of the source. How the source made its calls: active means hit-call score of the fitted dose curve at least 0.9, where 1 is the maximum; inconclusive means response in the unintended direction; inactive means score below 0.9.
Choose the fitting class; nothing outside active, inactive is accepted.

Would you please look over these solved cases?
- COC(=O)C1(O)c2ccccc2-c2ccccc21: inactive
- CCC(=O)O[C@@](Cc1ccccc1)(c1ccccc1)[C@@H](C)CN(C)C: inactive
- CC(C)(C#N)C(C)(C)C#N: inactive

Answer briefly: the call reported for "CC(=O)C=Cc1ccc2c(c1)OCO2" in this assay.
active

Answer briefly: the call reported for "CC1(C)[C@H](C=C(Cl)Cl)[C@@H]1C(=O)O[C@@H](C#N)c1cccc(Oc2ccccc2)c1" in this assay.
inactive

Answer briefly: the call reported for "Clc1ccc(C2(Cn3cncn3)OCCO2)c(Cl)c1" in this assay.
inactive

* * *

Experimental Target: Cellular tumor antigen p53 (Homo sapiens)
Experiment Description: TOX21_p53_BLA_p5_ratio: Tox21 HCT-116 p53 Agonism Beta-lactamase Assay, Ratio, Phase 5 (AID 2283599)
Records with an inconclusive call do not appear. Calls of active or inactive are those of the source. How the source made its calls: active means hit-call score of the fitted dose curve at least 0.9, where 1 is the maximum; inconclusive means response in the unintended direction; inactive means score below 0.9.
Choose the fitting class; nothing outside active, inactive is accepted.

Would you please look over these solved cases?
* NC(=O)CS(=O)C(c1ccccc1)c1ccccc1 (stereo not given) | inactive
* CCCC(C)(COC(N)=O)COC(N)=O | inactive
* COC(COC(N)=O)C1=C(N2CC2)C(=O)C(C)=C(N2CC2)C1=O (stereo not given) | active
* CC(Cc1ccc2c(c1)OCO2)NO (stereo not given) | inactive
* Brc1ccc(Oc2cc(Br)c(Br)cc2Br)c(Br)c1 | inactive
* CC(=O)C(Cl)(Cl)Cl | active

Answer briefly: the call reported for NCC(O)c1cccc(O)c1 (stereo not given) in this assay.
inactive

* * *

Experiment Description: TOX21_p53_BLA_p2_viability: Viability Assessment in the Tox21 HCT-116 p53 Agonism Beta-lactamase Assay, Phase 2 (AID 2283591);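 further: compound exposure lasted 16 h at 37 °C; actives lower the ATP signal meaning cytotoxicity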
Results filed as inconclusive are left out. Activity calls are given as the source filed them. The calls were made as follows: active = hit-call score of the fitted dose curve at least 0.9, where 1 is the maximum; inconclusive = response in the unintended direction; inactive = score below 0.9.
Choose the fitting class; nothing outside label 1 for active, label 0 for inactive is accepted.

Would you please look over these solved cases?
* [2H]C([2H])([2H])[C@H](N)Cc1ccccc1 | label 0
* CC(=O)O[C@H]1C[C@H](O[C@H]2[C@@H](O)C[C@H](O[C@H]3[C@@H](O)C[C@H](O[C@H]4CC[C@@]5(C)[C@H](CC[C@@H]6[C@@H]5C[C@@H](O)[C@]5(C)[C@@H](C7=CC(=O)OC7)CC[C@]65O)C4)O[C@@H]3C)O[C@@H]2C)O[C@H](C)[C@H]1O[C@@H]1O[C@H](CO)[C@@H](O)[C@H](O)[C@H]1O | label 1
* C=CC[C@]1(O)CC[C@H]2[C@@H]3CCC4=CCCC[C@@H]4[C@H]3CC[C@@]21C | label 0
* O=C(CCl)c1ccc(Oc2ccc(C(=O)CCl)cc2)cc1 | label 0
* C[C@]12CC[C@H](O)C[C@H]1CC[C@@H]1[C@@H]2CC[C@]2(C)[C@@H](c3ccc(=O)oc3)C[C@H]3O[C@]132 | label 1

Answer briefly: the call reported for "C[C@]12CC[C@H]3[C@@H](CCC4=CC(=O)CC[C@@]43C)[C@@H]1CC[C@@H]2OC(=O)CCc1ccccc1" in this assay.
label 0

Answer briefly: the call reported for "CCC(=O)O[C@](Cc1ccccc1)(c1ccccc1)[C@H](C)CN(C)C" in this assay.
label 0

* * *

Experimental Target: human Acetylcholinesterase (AChE), ACHE (gene 43) (UniProt P22303)
Sequence (P22303 whole entry, looked up): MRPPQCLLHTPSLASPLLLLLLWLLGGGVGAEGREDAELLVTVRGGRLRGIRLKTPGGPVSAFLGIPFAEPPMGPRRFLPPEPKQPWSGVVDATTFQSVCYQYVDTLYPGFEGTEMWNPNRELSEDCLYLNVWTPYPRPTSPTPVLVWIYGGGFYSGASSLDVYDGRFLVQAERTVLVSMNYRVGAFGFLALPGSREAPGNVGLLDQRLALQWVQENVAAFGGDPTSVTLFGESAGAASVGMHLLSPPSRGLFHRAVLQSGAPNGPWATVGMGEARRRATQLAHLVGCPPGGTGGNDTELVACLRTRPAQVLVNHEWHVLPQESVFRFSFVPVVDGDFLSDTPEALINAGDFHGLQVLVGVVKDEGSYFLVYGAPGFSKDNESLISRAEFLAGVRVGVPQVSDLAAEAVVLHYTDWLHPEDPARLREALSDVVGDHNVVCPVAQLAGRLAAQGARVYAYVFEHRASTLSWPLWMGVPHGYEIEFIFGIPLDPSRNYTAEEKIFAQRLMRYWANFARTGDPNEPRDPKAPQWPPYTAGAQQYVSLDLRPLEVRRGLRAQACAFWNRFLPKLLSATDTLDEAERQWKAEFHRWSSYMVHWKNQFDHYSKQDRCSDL
Experiment Description: NVS_ENZ_hAChE: NovaScreen (NVS) Enzymatic Assay for human Acetylcholinesterase (AChE) (AID 2283129)
Experimental: NVS_ENZ_hAChE is a biochemical, single-readout assay that uses extracted gene-proteins in a cell-free assay. Measurements were taken 0.33 hour after chemical dosing in a 96-well plate.NVS_ENZ_hAChE is one of one assay component(s) measured or calculated from the NVS_ENZ_hAChE assay. […] This assay endpoint, NVS_ENZ_hAChE, was analyzed in the positive analysis fitting direction relative to DMSO as the negative control and baseline of activity. […]
Results filed as inconclusive are left out. Active and inactive are the calls of the source. Rule for the calls: active = hit-call score of the fitted dose curve at least 0.9, where 1 is the maximum; inconclusive = response in the unintended direction; inactive = score below 0.9.
Choose the fitting class; nothing outside YES (active), NO (inactive) is accepted.

Would you please look over these solved cases?
• CCCCC(CC)COC(=O)CCCCCCCCC(=O)OCC(CC)CCCC (stereo not given) = YES
• CN(C)c1ccc(C(=C2C=CC(=[N+](C)C)C=C2)c2ccc(N(C)C)cc2)cc1 = YES
• CCCCCCOC(=O)CC(CC(=O)OCCCCCC)(OC(=O)CCC)C(=O)OCCCCCC = NO
• O=C(c1ccc(OCCN2CCCCC2)cc1)c1c(-c2ccc(O)cc2)sc2cc(O)ccc12 = YES

Now for another entry.
Answer briefly: the call reported for "COC(=O)c1ccccc1S(=O)(=O)NC(=O)Nc1nc(OC(F)F)cc(OC(F)F)n1" in this assay.
NO

* * *

Experiment Description: CCTE_Mundy_HCI_Cortical_NOG_NeuronCount: CCTE's Neurite Outgrowth Assay in rat cortical cells for Neuron Count, Mundy Lab (AID 2284236);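 further: neurons counted by imaging betaIII-tubulin and Hoechst stained cortical cells; cells exposed to compound for about 48 hours before fixation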
Records with an inconclusive call do not appear. Activity calls are given as the source filed them. The calls were made as follows: active = hit-call score of the fitted dose curve at least 0.9, where 1 is the maximum; inconclusive = response in the unintended direction; inactive = score below 0.9.
Choose the fitting class; nothing outside y for active, n for inactive is accepted.

• O=[As]O = y
• COP(=O)(OC)SCN1C(=O)c2ccccc2C1=O = n

Now for another entry.
Answer briefly: the call reported for "C=CCN1CC[C@]23c4c5ccc(O)c4O[C@H]2C(=O)CC[C@@]3(O)[C@H]1C5" in this assay.
n

Data provenance: PubChem BioAssay (EPA / NIEHS)
